# measurement.description: Tissue distribution of RPM constituents after oral RPM extract
# reported.conditions: both, Sprague-Dawley, rat, intestine, po, 18 g/kg, AUC0-t in intestine, rat tissue: intestine; 18 g/kg RPM extract p.o.; tissues collected at 5, 15, 60 min
quantity.kind: AUC(0-t) (µM·h)

compound | quantity.kind | readout.unit | readout.number
OC[C@H]1O[C@@H](Oc2c(O)cc(O)cc2/C=C/c2ccc(O)cc2)[C@H](O)[C@@H](O)[C@@H]1O | AUC(0-t) | µM·h | 71.7

I: COc1cc(O[C@@H]2O[C@H](CO)[C@@H](O)[C@H](O)[C@H]2O)c2c(c1)C(=O)c1cc(C)cc(O)c1C2=O [PG, physcion-8-O-β-D-glucoside]
II: Cc1cc(O)c2c(c1)C(=O)c1cccc(O)c1C2=O
III: COc1cc(O[C@@H]2O[C@H](CO)[C@@H](O)[C@H](O)[C@H]2O)c2c(O)c(C(C)=O)c(C)cc2c1 [TG, torachrysone-8-O-glucoside]
### Prompt Highest AUC(0-t) first, then in falling order down to the smallest. // format: requested-order list of labels
### Response I, III, II
(I: 0.692 µM·h, III: 0.181 µM·h, II: 0.0277 µM·h)
